Biological target: Nuclear factor erythroid 2-related factor 2 (Homo sapiens) (UniProt Q16236)
Sequence (Q16236 whole entry): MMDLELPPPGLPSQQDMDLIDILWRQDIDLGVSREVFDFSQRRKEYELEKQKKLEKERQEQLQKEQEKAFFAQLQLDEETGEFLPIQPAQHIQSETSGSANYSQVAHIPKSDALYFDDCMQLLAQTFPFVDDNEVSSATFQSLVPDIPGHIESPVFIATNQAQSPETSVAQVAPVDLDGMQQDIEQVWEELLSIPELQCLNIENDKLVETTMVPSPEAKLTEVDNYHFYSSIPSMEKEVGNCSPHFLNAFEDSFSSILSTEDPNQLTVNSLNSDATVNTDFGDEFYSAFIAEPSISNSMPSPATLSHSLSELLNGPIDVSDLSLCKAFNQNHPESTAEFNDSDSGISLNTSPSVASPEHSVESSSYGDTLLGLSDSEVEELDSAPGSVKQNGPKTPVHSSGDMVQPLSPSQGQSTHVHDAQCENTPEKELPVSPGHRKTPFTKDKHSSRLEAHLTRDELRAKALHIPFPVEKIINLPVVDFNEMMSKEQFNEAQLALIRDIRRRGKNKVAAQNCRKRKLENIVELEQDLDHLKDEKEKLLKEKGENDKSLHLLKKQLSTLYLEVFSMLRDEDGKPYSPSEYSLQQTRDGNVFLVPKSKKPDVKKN
Experiment: Agonist activity at Nrf2 (unknown origin) at 20 uM by dual-luciferase reporter gene assay
Conditions: filed as agonist
measured-parameter: fold change (FC)

Some molecules with known fold change (FC) results, for comparison:
* COc1ccccc1-c1cc2cc(Br)c3c(c2oc1=O)CCC(C)(C)O3 | 1.58
* CC1(C)CCc2c(c(Br)cc3cc(-c4ccc(OC(F)(F)F)cc4)c(=O)oc23)O1 | 1.69
* CC(C)=CCc1c(OC(=O)Cc2c[nH]c3ccccc23)ccc2ccc(=O)oc12 | 1.55

(a) CC(C)=CCc1c(OC(=O)Cc2c[nH]c3cc(Cl)ccc23)ccc2ccc(=O)oc12
(b) COc1ccc2c(CC(C)NC(=O)Oc3ccc4ccc(=O)oc4c3CC=C(C)C)c[nH]c2c1 (stereo not given)
Q: // task: argmin of fold change (FC) over [ a , b ] // respond with label for picked entry
A: b
